- Test system: SF-268
- measurementDescription: NCI tumour cell line growth inhibition, 48 h
The source made the active and inactive calls. Cut-off read from the data, not from the text of the source: active = GI50 up to about 1.1 µM and inactive = higher.
measure: GI50

Ask | Return reported GI50; argument: O=C(O)CCC(=O)OC1N=C(c2ccccc2Cl)c2cc([N+](=O)[O-])ccc2NC1=O (stereo not given)
Reply | 67.5 µM (inactive)

Ask | Continue with CC1(C)CC(=O)C(Cc2ccccc2)(Cc2ccccc2)C(=O)C1
Reply | > 100 µM (inactive)

Ask | Similarly, COc1cc(C2c3cc4c(cc3OC(NN=C(C)C)C2C)OCO4)cc(OC)c1O (stereo not given) ?
Reply | 31.5 µM (inactive)

Ask | Now give it for CSc1nc(=S)[nH]c2[nH]nc(C)c12 too.
Reply | > 100 µM (inactive)

Ask | Can you handle O=c1[nH]c(=O)n(COCCOCc2ccccc2)cc1Nc1ccccc1 next?
Reply | > 100 µM (inactive)

Ask | Please do the same for O=c1c(C(c2cnc3ccccc3c2)c2c(O)oc3ccccc3c2=O)c(O)oc2ccccc12 as well.
Reply | 23.8 µM (inactive)

Ask | Moving on to the next molecule: O=c1[nH]/c(=C/c2ccc(OCc3ccccc3)cn2)c(=O)[nH]/c1=C/c1ccc([N+](=O)[O-])cc1
Reply | > 54.2 µM (inactive)

Ask | Queued: O=C(CCc1nnc2s/c(=C\c3ccccc3)c(=O)n12)Nc1cc(Cl)ccc1Cl
Reply | > 100 µM (inactive)

Ask | Please give the result for N/C(=N\O)N/N=C/c1cc(I)cc(I)c1O too.
Reply | 24.1 µM (inactive)

Ask | Would you kindly repeat that for CSc1ccc(NC(=O)C2CCCCC2C(=O)O)cc1 (stereo not given) ?
Reply | > 100 µM (inactive)
